// values below are IC50; system is FGFR4 (Homo sapiens)
Sequence (P22455 22-802): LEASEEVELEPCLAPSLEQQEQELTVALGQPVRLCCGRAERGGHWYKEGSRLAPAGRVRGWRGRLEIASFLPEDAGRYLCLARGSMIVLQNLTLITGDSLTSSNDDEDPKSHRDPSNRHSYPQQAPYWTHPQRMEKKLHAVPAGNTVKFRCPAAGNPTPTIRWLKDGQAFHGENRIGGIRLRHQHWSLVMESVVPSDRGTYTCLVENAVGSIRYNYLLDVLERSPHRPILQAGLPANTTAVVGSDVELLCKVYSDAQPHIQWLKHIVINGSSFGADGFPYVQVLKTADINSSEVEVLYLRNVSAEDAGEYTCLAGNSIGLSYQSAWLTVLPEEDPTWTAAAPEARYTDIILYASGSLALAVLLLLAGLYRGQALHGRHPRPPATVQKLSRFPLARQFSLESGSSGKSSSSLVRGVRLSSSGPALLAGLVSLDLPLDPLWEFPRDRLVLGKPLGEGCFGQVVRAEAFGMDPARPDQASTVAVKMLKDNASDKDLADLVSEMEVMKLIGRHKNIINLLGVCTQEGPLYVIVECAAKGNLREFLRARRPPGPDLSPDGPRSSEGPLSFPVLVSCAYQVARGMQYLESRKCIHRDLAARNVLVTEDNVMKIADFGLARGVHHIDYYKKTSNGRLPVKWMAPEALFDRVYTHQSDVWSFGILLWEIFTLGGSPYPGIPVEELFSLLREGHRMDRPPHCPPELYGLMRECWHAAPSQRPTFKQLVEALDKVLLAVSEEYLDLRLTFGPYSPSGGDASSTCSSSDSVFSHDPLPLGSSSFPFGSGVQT
The response must be a number in µM with no trailing unit.

Record C=CC(=O)N[C@H]1COC[C@H]1Nc1cc2c(NC)nc(-c3c(Cl)c(OC)cc(OC)c3Cl)nc2cn1 , field IC50: 0.991

Please fill in: IC50 reported for C=CC(=O)N[C@H]1COC[C@H]1Nc1ncc2cc(-c3c(Cl)c(OC)cc(OC)c3Cl)nc(N3CC4CC3CO4)c2n1 (stereo partly shown) = 0.0079

Data point: C=CC(=O)N[C@H]1COC[C@H]1Nc1ncc2cc(-c3c(Cl)c(OC)cc(OC)c3Cl)nc(NCCNS(C)(=O)=O)c2n1 ; IC50 = 0.0191

Consider C=CC(=O)N[C@H]1COC[C@H]1Nc1ncc2cc(-c3c(Cl)c(OC)cc(OC)c3Cl)nc(N3CCOCC3)c2n1 . Its measured IC50 is 0.0082

Measured IC50 of C=CC(=O)N[C@H]1COC[C@H]1Nc1ncc2cc(-c3c(Cl)c(OC)cc(OC)c3Cl)nc(OCc3cc(OC)cc(OC)c3)c2n1 : 0.043

The compound listed as C=CC(=O)N[C@H]1COC[C@H]1Nc1ncc2cc(-c3c(Cl)c(OC)cc(OC)c3Cl)nc(C3=CCOCC3)c2n1 shows IC50 equal to 0.0202

Measured IC50, C=CC(=O)N[C@H]1CCOC[C@H]1Nc1ncc2cc(-c3c(F)c(OC)cc(OC)c3F)nc(N3CC4CC(C3)O4)c2n1 : 0.023

// IC50 lookup, compound = C=CC(=O)N[C@H]1COC[C@H]1Nc1ncc2cc(-c3c(Cl)c(OC)cc(OC)c3Cl)nc(NCCCN(C)C)c2n1 , result: 0.106

Query C=CC(=O)N[C@H]1COC[C@H]1Nc1ncc2cc(-c3c(F)c(OC)cc(OC)c3F)nc(N3CC4CC(C3)O4)c2n1 yields IC50 of 0.0037

For reference, reported IC50 for C=CC(=O)N[C@H]1COC[C@H]1Nc1ncc2cc(-c3c(Cl)c(OC)cc(OC)c3Cl)nc(NCc3cnn(C)c3)c2n1 stands at 0.0173

Record C=CC(=O)N[C@H]1COC[C@H]1Nc1ncc2cc(-c3c(Cl)c(OC)cc(OC)c3Cl)nc(Cl)c2n1 , field IC50: 0.019

According to the records, this compound C=CC(=O)N[C@H]1COC[C@H]1Nc1ncc2cc(-c3c(Cl)c(OC)cc(OC)c3Cl)nc(NCCN(C)C)c2n1 displays IC50 of 0.519

# IC50 of C=CC(=O)N[C@H]1CCOC[C@H]1Nc1ncc2cc(-c3c(F)c(OC)cc(OC)c3F)nc(N3CC(F)(F)C3)c2n1 = 0.0037
